# procedure_summary: xn = mol fraction of the nth substance listed, in the solute-free solvent
# assay_conditions: 288.15 K; x2 = 0.2068
In this section, each of the compounds is paired with its reported solubility (g/100 g solution).
endpoint: solubility (g/100 g solution)

compound="CS(=O)(=O)c1ccc(C(O)C(CF)NC(=O)C(Cl)Cl)cc1 (centres undefined) + CCO + O" endpoint="solubility (g/100 g solution)" result_value=0.887
compound="CC(=O)Nc1ccc(OC(=O)c2ccccc2OC(C)=O)cc1 + CCO + O" endpoint="solubility (g/100 g solution)" result_value=0.0699
compound="O=[N+]([O-])c1cc[nH]n1 + CCO + O" endpoint="solubility (g/100 g solution)" result_value=0.6
compound="COC(=O)C1=C(C)NC(C)=C(C(=O)OCC(C)C)C1c1ccccc1[N+](=O)[O-] (centres undefined) + CCO + O" endpoint="solubility (g/100 g solution)" result_value=1.87
